assay: Alkylating activity of the compound relative to 1,3-bis-(2-chloroethyl)-1-nitrosourea; assay type: physicochemical
experimental-endpoint: fold change (FC)
Write the number on its own, no unit after it.

Some entries whose results are on file:
Cc1cn([C@H]2C[C@H](O)[C@@H](CN(N=O)C(=O)NCCCl)O2)c(=O)[nH]c1=O
0.06
Cc1cn([C@H]2C[C@H](O)[C@@H](CNC(=O)N(CCCl)N=O)O2)c(=O)[nH]c1=O
0.47
Cc1cn([C@H]2C[C@H](NC(=O)N(C)N=O)[C@@H](CO)O2)c(=O)[nH]c1=O
0.05

Form field: reported fold change (FC) of Cc1cn([C@H]2C[C@H](NC(=O)N(CCCl)N=O)[C@@H](CO)O2)c(=O)[nH]c1=O
2.1

Quick one: fold change (FC) for Cc1cn([C@H]2C[C@H](O)[C@@H](CNC(=O)N(C)N=O)O2)c(=O)[nH]c1=O ?
0.05
